# ASSAYED_TARGET: LmjIPCS (inositol phosphorylceramide synthase from L. major) (Leishmania major, UniProt E9AFX2)
# Sequence (E9AFX2 1-338): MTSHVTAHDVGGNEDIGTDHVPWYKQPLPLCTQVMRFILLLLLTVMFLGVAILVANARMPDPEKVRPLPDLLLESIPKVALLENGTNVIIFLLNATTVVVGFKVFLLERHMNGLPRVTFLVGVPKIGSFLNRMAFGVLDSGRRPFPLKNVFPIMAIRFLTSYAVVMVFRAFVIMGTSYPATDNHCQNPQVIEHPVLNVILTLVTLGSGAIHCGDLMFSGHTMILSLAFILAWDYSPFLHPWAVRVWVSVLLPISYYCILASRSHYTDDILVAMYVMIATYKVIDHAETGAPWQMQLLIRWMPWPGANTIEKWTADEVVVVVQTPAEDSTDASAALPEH
# EXPERIMENT_SUMMARY: biochemical
# Assay type: biochemical
# CONDITIONS: read-out: 20mM inhibition LmjIPCS
As shown below, each of these compounds has a reported inhibition at 20000 µM value.
QUANTITY: inhibition at 20000 µM (%)

COMPOUND: Nc1nc(/C(=C/CC(=O)O)C(=O)N[C@@H]2C(=O)N3C(C(=O)O)=CCS[C@H]23)cs1
UNIT_ABBREV: %
RECORDED_VALUE: 18
--
COMPOUND: C[C@]12CCC(=O)C=C1C=C[C@@H]1[C@@H]2CC[C@@]2(C)[C@H]1CC[C@@]21CCC(=O)O1
UNIT_ABBREV: %
RECORDED_VALUE: 12
--
COMPOUND: CC[C@@H](C)C(=O)O[C@H]1[C@H](O)[C@H]2[C@@H](CN3C[C@@H](C)CC[C@H]3[C@@]2(C)O)[C@@H]2C[C@]34O[C@]5(O)[C@@H](OC(=O)[C@](C)(O)[C@@H](C)O)CC[C@@]3(C)[C@@H]5[C@@H](OC(C)=O)[C@@H](OC(C)=O)[C@H]4[C@@]21O (stereo in doubt) [PROT[…]]
UNIT_ABBREV: %
RECORDED_VALUE: 14

---

# ASSAYED_TARGET: LmjIPCS (inositol phosphorylceramide synthase from L. major) (Leishmania major)
# Sequence (E9AFX2 1-338): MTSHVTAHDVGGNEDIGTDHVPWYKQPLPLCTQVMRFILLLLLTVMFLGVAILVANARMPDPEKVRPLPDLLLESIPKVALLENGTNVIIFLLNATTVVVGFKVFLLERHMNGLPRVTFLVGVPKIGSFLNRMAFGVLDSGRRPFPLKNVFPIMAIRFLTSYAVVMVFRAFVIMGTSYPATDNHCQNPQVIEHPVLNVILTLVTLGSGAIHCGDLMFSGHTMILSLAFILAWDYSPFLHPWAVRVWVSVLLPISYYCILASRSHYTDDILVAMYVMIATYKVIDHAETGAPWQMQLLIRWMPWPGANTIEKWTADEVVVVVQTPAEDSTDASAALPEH
# EXPERIMENT_SUMMARY: biochemical
# Format: biochemical
# Parameters: dose or concentration left out as unconfirmed
# CONDITIONS: NINDS set screen; read-out: inhibition LmjIPCS
Structures can show the parent of a compound that is named as a salt.
As shown below, each of these compounds has a reported inhibition value.
QUANTITY: inhibition (%)

COMPOUND: C[C@]12C=CC(=O)C=C1CC[C@H]1[C@@H]3C[C@@H](O)[C@](O)(C(=O)CO)[C@@]3(C)C[C@H](O)[C@@]12F
UNIT_ABBREV: %
RECORDED_VALUE: -1.57
--
COMPOUND: Cc1cc(C)cc(OCC2CNC(=O)O2)c1 (stereo not drawn)
UNIT_ABBREV: %
RECORDED_VALUE: -4.75
--
COMPOUND: N[C@@H](CCC(=O)N[C@@H](CSC(CC(=O)O)C(=O)O)C(=O)NCC(=O)O)C(=O)O (stereo partly drawn)
UNIT_ABBREV: %
RECORDED_VALUE: 14
--
COMPOUND: CC(C)(O)CC[C@@H](O)[C@](C)(O)[C@H]1CC[C@@]2(O)C3=CC(=O)[C@@H]4C[C@@H](O)[C@@H](O)C[C@]4(C)[C@H]3CC[C@]12C
UNIT_ABBREV: %
RECORDED_VALUE: -3.51
--
COMPOUND: Cc1cc(-c2ccccc2)nnc1NCCN1CCOCC1
UNIT_ABBREV: %
RECORDED_VALUE: 25
--
COMPOUND: OCc1ccccc1O
UNIT_ABBREV: %
RECORDED_VALUE: 23
--
COMPOUND: CCCCNc1ccc(C(=O)OCCN(C)C)cc1
UNIT_ABBREV: %
RECORDED_VALUE: 18
--
COMPOUND: NCC(O)c1ccc(O)cc1 (stereo not drawn) [OCTOPAMINE HYDROCHLORIDE]
UNIT_ABBREV: %
RECORDED_VALUE: 33
--
COMPOUND: CC1=C(/C=C/C(C)=C/C=C/C(C)=C/C=C/C=C(C)/C=C/C=C(C)/C=C/C(=O)[C@]2(C)C[C@@H](O)CC2(C)C)C(C)(C)C[C@H](O)C1
UNIT_ABBREV: %
RECORDED_VALUE: 33
--
COMPOUND: CN1CCN(CC/C=C2/c3ccccc3Sc3ccc(S(=O)(=O)N(C)C)cc32)CC1
UNIT_ABBREV: %
RECORDED_VALUE: -24
--
COMPOUND: COC(=O)C(C)c1ccc(C(=O)c2cccs2)cc1 (stereo not drawn)
UNIT_ABBREV: %
RECORDED_VALUE: -10
--
COMPOUND: Cn1c(=O)[nH]c2ncn(C)c2c1=O
UNIT_ABBREV: %
RECORDED_VALUE: -5.66
--
COMPOUND: CN(C)CCC(c1ccccc1)c1ccccn1 (stereo not drawn)
UNIT_ABBREV: %
RECORDED_VALUE: -1
--
COMPOUND: Cn1c([N+](=O)[O-])cnc1COC(N)=O
UNIT_ABBREV: %
RECORDED_VALUE: 0.0172
--
COMPOUND: O=c1[nH]c(=O)n([C@H]2C[C@H](O)[C@@H](CO)O2)cc1F
UNIT_ABBREV: %
RECORDED_VALUE: -2.28
--
COMPOUND: Nc1ccc(S(=O)(=O)Nc2ccc(Cl)nn2)cc1
UNIT_ABBREV: %
RECORDED_VALUE: 23
--
COMPOUND: Nc1ccc(S(=O)(=O)Nc2ccnn2-c2ccccc2)cc1
UNIT_ABBREV: %
RECORDED_VALUE: 0.104
--
COMPOUND: CNC1(C)C2CCC(C2)C1(C)C (stereo not drawn)
UNIT_ABBREV: %
RECORDED_VALUE: 17

Entry source: paper PMC7802075
